Ref: ChEMBL document CHEMBL1811896

- System: Escherichia coli
- protocol summary: Inhibition of Escherichia coli beta-glucuronidase assessed as inhibition of p-nitrophenyl-beta-D-glucuronide hydrolysis at 0.20 mM preincubated for 30 mins measured 30 mins after substrate addition by spectrophotometry
# inhibition annotations
Write the answer as a number in %, unit excluded.

Example molecules with recorded inhibition:
Enquiry: What inhibition value was documented for this molecule, O=c1c(O)c(-c2ccc(O)cc2)oc2cc(O)cc(O)c12 [KAEMPFEROL] ?
Return: 87.5

Enquiry: Request the reported inhibition associated with COc1ccc(C(=O)O)cc1 [p-ANISIC ACID]
Return: 66.2

Enquiry: Entry CC(C)=CCc1c(O)cc2occ(-c3ccc(O)cc3)c(=O)c2c1O [WIGHTEONE] has what inhibition?
Return: 97.3

Enquiry: Item "O=c1cc(-c2ccc(O)cc2)oc2cc(O)cc(O)c12" has what recorded inhibition?
Return: 15.7

More entries:
Enquiry: Any idea what inhibition was measured for COc1c(-c2ccc(O)c(O)c2)oc2cc(O)cc(O)c2c1=O [3-O-METHYLQUERCETIN] ?
Return: 85.2

Enquiry: Record request: inhibition value, item "O=C(O)c1ccc(O)c(O)c1"
Return: 23.5

Enquiry: Please look up its inhibition: CC1=C[C@H](c2cc(-c3coc4cc(O)cc(O)c4c3=O)ccc2O)[C@](C)(/C=C/c2cc(-c3coc4cc(O)cc(O)c4c3=O)ccc2O)CC1 [MUCUSISOFLAVONE A]
Return: 98.7

---

- system: Enoyl-acyl-carrier protein reductase (Plasmodium falciparum) (UniProt Q965D5)
- Sequence (Q965D5 as listed by the source): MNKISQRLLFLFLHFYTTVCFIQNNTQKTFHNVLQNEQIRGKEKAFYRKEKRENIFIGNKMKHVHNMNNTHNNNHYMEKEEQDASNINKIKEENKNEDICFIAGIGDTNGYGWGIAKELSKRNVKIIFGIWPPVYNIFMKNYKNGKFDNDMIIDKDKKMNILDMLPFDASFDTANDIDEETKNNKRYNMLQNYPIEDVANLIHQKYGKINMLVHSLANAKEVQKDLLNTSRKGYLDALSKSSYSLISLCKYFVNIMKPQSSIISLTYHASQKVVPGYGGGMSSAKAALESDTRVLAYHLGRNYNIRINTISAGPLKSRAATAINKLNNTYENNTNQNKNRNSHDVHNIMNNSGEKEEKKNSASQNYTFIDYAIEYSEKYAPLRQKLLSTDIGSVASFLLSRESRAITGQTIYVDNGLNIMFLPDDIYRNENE
- protocol summary: Inhibition of Plasmodium falciparum Enoyl-ACP reductase using crotonyl-CoA as substrate at 0.25 mM peincubated for 5 mins measured after 10 mins of substrate addition by UV-vis spectrophotometry
Active and inactive are the calls of the source. No cut-off for these calls is given here.
readout label: inhibition

Enquiry: Requested read-out: inhibition. Entry: "CC(C)=C[C@@H]1C[C@](C)(/C=C/c2cc(-c3coc4cc(O)cc(O)c4c3=O)ccc2O)Oc2ccc(-c3coc4cc(O)cc(O)c4c3=O)cc21"
Return: inactive

Enquiry: Suppose we examine the molecule "CC1(C)C=Cc2c(cc3occ(-c4ccc(O)cc4)c(=O)c3c2O)O1" ; what inhibition value has been reported?
Return: 12.6%

Enquiry: Would you kindly share the measured inhibition for "CCCCC/C=C/CCCCCCC[C@@H](O)[C@@H](O)[C@H](CO)NC(=O)[C@H](O)CCCCCCCCCCCCCCCCCCCCCC" ?
Return: inactive

---

- protocol summary: Inhibition of Escherichia coli beta-glucuronidase assessed as inhibition of p-nitrophenyl-beta-D-glucuronide hydrolysis preincubated for 30 mins measured 30 mins after substrate addition by spectrophotometry
readout label: IC50

Study these solved cases before continuing.
Enquiry: Name the reported IC50 value associated with the compound "COc1c(-c2ccc(O)c(O)c2)oc2cc(O)cc(O)c2c1=O"
Return: 44.6 µM

Enquiry: Entry "CC(C)=CCc1c(O)cc2occ(-c3ccc(O)cc3)c(=O)c2c1O" : reported IC50 = ?
Return: 4.03 µM

Enquiry: Look at this compound and give its reported IC50. "COc1ccc(C(=O)O)cc1"
Return: 124 µM

Below: the item to evaluate.
Enquiry: If you can, please state the reported IC50 value of CC(C)=CCc1cc(-c2coc3c(C(C=C(C)C)c4cc(-c5coc6cc(O)cc(O)c6c5=O)ccc4O)c(O)cc(O)c3c2=O)ccc1O (centres undefined) .
Return: 3.08 µM
